Each recorded value in this set is attributed to patent US9505781B2.

Target: menin-MLL interaction (Homo sapiens)
Sequence (O00255 1-610): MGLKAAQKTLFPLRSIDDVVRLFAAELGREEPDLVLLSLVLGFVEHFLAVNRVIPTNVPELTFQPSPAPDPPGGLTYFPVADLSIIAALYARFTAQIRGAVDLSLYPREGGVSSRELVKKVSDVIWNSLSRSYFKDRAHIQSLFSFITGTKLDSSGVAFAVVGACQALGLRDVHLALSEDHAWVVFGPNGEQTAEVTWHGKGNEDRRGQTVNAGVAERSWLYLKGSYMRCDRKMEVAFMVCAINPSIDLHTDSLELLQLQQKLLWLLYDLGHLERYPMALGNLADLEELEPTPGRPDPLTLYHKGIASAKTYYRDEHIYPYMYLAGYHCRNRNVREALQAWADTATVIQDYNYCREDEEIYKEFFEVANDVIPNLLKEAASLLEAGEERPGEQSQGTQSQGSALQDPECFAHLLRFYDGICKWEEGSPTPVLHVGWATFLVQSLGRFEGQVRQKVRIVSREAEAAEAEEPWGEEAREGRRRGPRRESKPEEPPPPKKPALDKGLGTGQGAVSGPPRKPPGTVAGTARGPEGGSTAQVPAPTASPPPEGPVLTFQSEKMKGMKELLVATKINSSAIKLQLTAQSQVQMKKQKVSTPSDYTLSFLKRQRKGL
Assay: biochemical
pIC50: −log10 of the molar value.
Property measured: pIC50

Reported pIC50 ( COc1ccccc1CC(=O)N1CCN(c2ncnc3sc(CC(F)(F)F)cc23)CC1 ) = 5.70 to 6.30

Reported pIC50 ( CC1(C)CN=C(N2CCN(c3ncnc4sc(CCc5ccccc5)cc34)CC2)S1 ) = 5.70 to 6.30

Reported pIC50 ( N#Cc1[nH]c2ccc(CN3CCC(Nc4ncnc5sc(CC(F)(F)F)cc45)CC3)cc2c1F ) = > 7.00

Reported pIC50 ( FC(F)(F)Cc1cc2c(NC3CCN(Cc4ccccc4Cl)CC3)ncnc2s1 ) = 6.30 to 7.00

---

Target: menin-MLL interaction (Homo sapiens, UniProt O00255)
Experiment: biochemical
Property measured: IC50

Reported IC50 ( CS(=O)(=O)Cc1ccc(CC(=O)N2CCN(c3ncnc4sc(CC(F)(F)F)cc34)CC2)cc1 ) = < 100 nM

Reported IC50 ( CC(=O)NCCS(=O)(=O)Nc1ccc(CC(=O)N2CCN(c3ncnc4sc(CC(F)(F)F)cc34)CC2)cc1 ) = < 100 nM

Reported IC50 ( FC(F)(F)Cc1cc2c(NC3CCN(Cc4ccc(N5CCOCC5)cc4Cl)CC3)ncnc2s1 ) = 100 to 500 nM

Reported IC50 ( COCCCc1cc2c(N3CCN(C4=NCC(C)(C)S4)CC3)ncnc2s1 ) = 500 to 2000 nM

Reported IC50 ( CC(C)OC(CO)Cn1c(C#N)cc2cc(CN3CCC(Nc4ncnc5sc(CC(F)(F)F)cc45)CC3)ccc21 (stereo not drawn) ) = < 100 nM

Reported IC50 ( N#C[C@H]1C[C@@H]1c1ccc(CN2CCC(Nc3ncnc4sc(CC(F)(F)F)cc34)CC2)cc1 ) = < 100 nM

Reported IC50 ( CS(=O)(=O)N1CCC[C@H]1CN[C@@H]1CN(Cc2ccccc2)CC[C@H]1Nc1ncnc2sc(CC(F)(F)F)cc12 ) = 100 to 500 nM

Reported IC50 ( O=C(Cc1ccc(NS(=O)(=O)C2CC2)cc1Cl)N1CCN(C2=NC=NC3SC(CC(F)(F)F)=CC23)CC1 (stereo not drawn) ) = < 100 nM

Reported IC50 ( N#Cc1cc2cc(CN3CCC(Nc4ncnc5sc(CC(F)(F)F)cc45)CC3)ccc2n1Cc1c[nH]nn1 ) = < 100 nM

Reported IC50 ( N#Cc1cc2cc(CN3CCC(Nc4ncnc5sc(CC(F)(F)F)cc45)CC3)ccc2n1CCO ) = < 100 nM

Reported IC50 ( N#Cc1cc2cc(CN3CCC(Nc4c(COCCCC5CCCC5)cnc5sc(CC(F)(F)F)cc45)CC3)ccc2[nH]1 ) = 500 to 2000 nM

Reported IC50 ( O=C(Cc1ccc(NS(=O)(=O)CC(F)(F)F)cc1Cl)N1CCN(C2=NC=NC3SC(CC(F)(F)F)=CC23)CC1 (stereo not drawn) ) = 500 to 2000 nM

Reported IC50 ( COc1ccc(CCCc2nnc(N3CCN(c4ncnc5sc(CC(F)(F)F)cc45)CC3)s2)cc1 ) = 100 to 500 nM

Reported IC50 ( FC(F)(F)Cc1cc2c(N[C@H]3CCN(Cc4ccccc4)C[C@@H]3NCC3CCCC3)ncnc2s1 ) = 100 to 500 nM

Reported IC50 ( FC(F)(F)Cc1sc2ncnc3c2c1CNN3C1CCN(Cc2ccccc2)CC1 ) = 500 to 2000 nM

---

Molecular target: menin-MLL interaction (Homo sapiens, UniProt O00255)
Sequence (O00255 1-610): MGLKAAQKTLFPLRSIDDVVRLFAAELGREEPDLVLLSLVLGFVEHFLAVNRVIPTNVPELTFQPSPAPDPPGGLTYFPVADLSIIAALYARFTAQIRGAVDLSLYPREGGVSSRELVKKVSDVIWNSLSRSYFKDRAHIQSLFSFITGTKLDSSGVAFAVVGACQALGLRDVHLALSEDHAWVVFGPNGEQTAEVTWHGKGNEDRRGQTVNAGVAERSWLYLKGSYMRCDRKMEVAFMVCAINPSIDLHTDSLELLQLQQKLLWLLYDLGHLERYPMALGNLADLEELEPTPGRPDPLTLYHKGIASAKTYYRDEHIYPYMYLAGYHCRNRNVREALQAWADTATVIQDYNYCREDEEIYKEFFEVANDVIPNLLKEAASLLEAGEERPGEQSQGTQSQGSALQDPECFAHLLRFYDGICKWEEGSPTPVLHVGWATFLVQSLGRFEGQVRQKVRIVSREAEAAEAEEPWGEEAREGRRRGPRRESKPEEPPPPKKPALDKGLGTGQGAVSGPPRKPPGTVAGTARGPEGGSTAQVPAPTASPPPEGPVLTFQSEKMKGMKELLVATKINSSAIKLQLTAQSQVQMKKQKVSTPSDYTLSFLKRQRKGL
Assay: biochemical
Property measured: IC50

Reported IC50 ( CCC(=O)N1CCN(CCn2c(C#N)cc3cc(CN4CCC(Nc5ncnc6sc(CC(F)(F)F)cc56)CC4)ccc32)CC1 ) = < 100 nM

Reported IC50 ( FC(F)(F)Cc1cc2c(N3CCN(c4nnc(C(F)(F)F)o4)CC3)ncnc2s1 ) = 500 to 2000 nM

Reported IC50 ( COc1cc2c(cc(C#N)n2Cc2cn[nH]c2)c(C)c1CN1CCC(Nc2ncnc3sc(CC(F)(F)F)cc23)CC1 ) = < 100 nM

Reported IC50 ( FC(F)(F)Cc1cc2c(NC3CCN(Cc4ccc(CN5CCCCC5)cc4)CC3)ncnc2s1 ) = 100 to 500 nM

Reported IC50 ( NS(=O)(=O)Cc1ccc(CC(=O)N2CCN(c3ncnc4sc(CC(F)(F)F)cc34)CC2)cc1 ) = < 100 nM

Reported IC50 ( COc1cc2c(cc(C#N)n2Cc2c[nH]nn2)c(C)c1CN1CCC(Nc2ncnc3sc(CC(F)(F)F)cc23)CC1 ) = < 100 nM

Reported IC50 ( CC(C)S(=O)(=O)Nc1ccc(CC(=O)N2CCN(c3ncnc4sc(CC(F)(F)F)cc34)CC2)cc1 ) = < 100 nM

---

Target: menin-MLL interaction (Homo sapiens, UniProt O00255)
Test: biochemical
pIC50: −log10 of the molar value.
Property measured: pIC50

Reported pIC50 ( Cc1cc(Cn2c(C#N)cc3c(C)c(CN4CCC(Nc5ncnc6sc(CC(F)(F)F)cc56)CC4)ccc32)[nH]n1 [Compound 365] ) = > 7.00

Reported pIC50 ( N#Cc1cc2cc(CN3CCC(Nc4ncnc5sc(CC(F)(F)F)cc45)CC3)ccc2n1Cc1cscn1 [Compound 200] ) = > 7.00

Reported pIC50 ( N#Cc1cc2c(C(F)F)c(CN3CCC(Nc4ncnc5sc(CC(F)(F)F)cc45)CC3)ccc2[nH]1 [Compound 305] ) = > 7.00

Reported pIC50 ( CS(=O)(=O)N(CC(F)(F)F)c1ccc(CC(=O)N2CCN(c3ncnc4sc(CC(F)(F)F)cc34)CC2)cc1 [Compound 85] ) = 6.30 to 7.00

Reported pIC50 ( COc1c(CN2CCC(Nc3ncnc4sc(CC(F)(F)F)cc34)CC2)ccc2c1cc(C#N)n2CC(N)=O [Compound 193] ) = > 7.00

Reported pIC50 ( CC(=O)c1ccc(CN2CCC(CNc3ncnc4sc(CC(F)(F)F)cc34)CC2)cc1 [Compound 270] ) = 5.70 to 6.30

Reported pIC50 ( N#Cc1cc2c(CO)c(CN3CCC(Nc4ncnc5sc(CC(F)(F)F)cc45)CC3)ccc2n1Cc1cn[nH]c1 [Compound 335] ) = > 7.00
